Hey, just so you know, these numbers are from patent US20230303649A1.

The following binders are shown together with reported Treg EC50 (nM), STAT5 phosphorylation values.
Target: T1, IL-2R on human primary T cells (human, UniProt P01589 22-272; P14784 27-551; P31785 23-369)
T1 sequence (looked up) 1: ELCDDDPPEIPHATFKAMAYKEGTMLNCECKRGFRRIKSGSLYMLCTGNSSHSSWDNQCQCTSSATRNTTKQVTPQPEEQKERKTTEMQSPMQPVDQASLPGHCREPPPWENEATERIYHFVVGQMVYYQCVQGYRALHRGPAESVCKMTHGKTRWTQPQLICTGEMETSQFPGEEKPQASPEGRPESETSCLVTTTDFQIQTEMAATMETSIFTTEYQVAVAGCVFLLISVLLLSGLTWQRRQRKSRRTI
T1 sequence (looked up) 2: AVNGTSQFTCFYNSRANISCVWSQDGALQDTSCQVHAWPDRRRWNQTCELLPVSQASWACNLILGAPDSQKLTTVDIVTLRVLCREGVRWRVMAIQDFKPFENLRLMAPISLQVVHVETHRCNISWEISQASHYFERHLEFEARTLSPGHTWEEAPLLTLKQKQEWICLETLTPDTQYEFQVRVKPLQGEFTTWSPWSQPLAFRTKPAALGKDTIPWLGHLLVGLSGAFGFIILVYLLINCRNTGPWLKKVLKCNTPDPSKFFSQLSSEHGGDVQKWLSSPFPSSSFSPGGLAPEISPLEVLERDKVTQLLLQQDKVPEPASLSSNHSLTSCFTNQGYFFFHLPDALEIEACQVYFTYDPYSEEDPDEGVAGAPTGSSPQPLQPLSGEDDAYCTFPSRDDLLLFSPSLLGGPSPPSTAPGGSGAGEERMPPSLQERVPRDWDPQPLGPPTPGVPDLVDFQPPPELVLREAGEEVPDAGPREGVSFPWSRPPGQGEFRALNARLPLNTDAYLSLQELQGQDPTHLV
T1 sequence (looked up) 3: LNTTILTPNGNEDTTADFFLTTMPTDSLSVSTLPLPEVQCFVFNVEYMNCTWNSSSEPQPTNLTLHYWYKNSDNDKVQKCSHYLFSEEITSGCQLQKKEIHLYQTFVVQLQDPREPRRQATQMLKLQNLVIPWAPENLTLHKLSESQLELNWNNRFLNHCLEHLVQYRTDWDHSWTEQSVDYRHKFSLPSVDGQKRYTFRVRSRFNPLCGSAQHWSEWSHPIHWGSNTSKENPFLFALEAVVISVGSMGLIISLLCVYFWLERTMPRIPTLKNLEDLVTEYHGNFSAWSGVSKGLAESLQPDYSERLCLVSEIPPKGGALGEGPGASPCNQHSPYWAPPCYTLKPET
Test: cell-based or functional assay
Use nM as the unit, but write only the number.

Consider the reported Treg EC50 (nM), STAT5 phosphorylation for these binders:
Binder	Units Of Measure	Measured Number
SEQ ID NO 20 (ligand) APTSSSTKKTQLQLEHLLLDLQMILNGINNHKNPKLTRMLTFKFYMPKKATELKHLQCLEEELKPLEEALRLAPSKNFHLRPRDLISNINVIVLELKGSETTFMCEYADETATIVEFLNRWITFSQSIISTLT	nM	0.03
SEQ ID NO 31 (ligand) APTSSSTKKTQLQLEHLLLDLQMILNGINNYKNPKLTRMLTFKFYMPKKATELKHLQCLEEELKPLEEALNLAPSKNFHLRPRDLISDINVIVLELKGSETTFMCEYADETATIVEFLNRWITFSQSIISTLT	nM	17
SEQ ID NO 9 (ligand) APTSSSTKKTQLQLEHLLLDLQMILNGINNHKNPRLTRMLTFKFYMPKKATELKHLQCLEEELKPLEEALRLAPSKNFHLRPRDLISNINVIVLELKGSETTFMCEYADETATIVEFLNRWITFSQSIISTLT	nM	0.05

The binder SEQ ID NO 38 (ligand) APTSSSTKKTQLQLEHLLLDLQMILNGINNYKNPKLTRMLTFKFYMPKKATELKHLQCLEEELKPLEEALRLAPSKNFHLRPRDLISDINVIVLELKGSETTFMCEYADETATIVEFLNRWITFSQSIISTLT showed Treg EC50 (nM), STAT5 phosphorylation equal to 0.4
